tested target: Carbonic anhydrase 2 (Homo sapiens)
measurement description: Dissociation constant against human carbonic anhydrase II at 37 degree Centigrade
Note to self: use class 1 only for Kd readings below 200 nM; a reading exactly at 200 nM still gets class 0.

>  <compound>
CSCCC(NC(=O)CNC(=O)c1ccc(S(N)(=O)=O)cc1)C(=O)O (configuration not stated)

>  <qualitative label>
class 1

$$$$

Inquiry: Regarding COc1ccc(CC(NC(=O)CNC(=O)c2ccc(S(N)(=O)=O)cc2)C(=O)O)cc1 (configuration not stated) , kindly confirm whether its Kd is beneath 200 nM.
Reply text: class 1

Inquiry: One more compound: `NC(=O)CC[C@H](NC(=O)CNC(=O)CNC(=O)CNC(=O)c1ccc(S(N)(=O)=O)cc1)C(=O)O`
Reply text: class 0

Inquiry: One more compound: `CC(C)[C@H](NC(=O)CNC(=O)CNC(=O)c1ccc(S(N)(=O)=O)cc1)C(=O)O`
Reply text: class 0

Inquiry: One more compound: `NS(=O)(=O)c1ccc(C(=O)NCC(=O)NCC(=O)N[C@@H](CO)C(=O)O)cc1`
Reply text: class 0

Inquiry: One more compound: CC(C)CC(NC(=O)CNC(=O)c1ccc(S(N)(=O)=O)cc1)C(=O)O (configuration not stated)
Reply text: class 1

Inquiry: One more compound: NS(=O)(=O)c1ccc(C(=O)NC(CO)C(=O)O)cc1 (configuration not stated)
Reply text: class 0

Inquiry: One more compound: `NS(=O)(=O)c1ccc(C(=O)NCC(=O)NCC(=O)N[C@@H](Cc2ccc([N+](=O)[O-])cc2)C(=O)O)cc1`
Reply text: class 1

Inquiry: One more compound: `NS(=O)(=O)c1ccc(C(=O)NCC(=O)NCC(=O)N2CCC[C@H]2C(=O)O)cc1`
Reply text: class 0

Inquiry: One more compound: `C[C@@H](O)[C@H](NC(=O)CNC(=O)CNC(=O)CNC(=O)c1ccc(S(N)(=O)=O)cc1)C(=O)O`
Reply text: class 0

Inquiry: One more compound: `C[C@@H](O)[C@H](NC(=O)CNC(=O)CNC(=O)c1ccc(S(N)(=O)=O)cc1)C(=O)O`
Reply text: class 0

Inquiry: One more compound: `NC(=O)C[C@H](NC(=O)CNC(=O)CNC(=O)c1ccc(S(N)(=O)=O)cc1)C(=O)O`
Reply text: class 0

Inquiry: One more compound: NS(=O)(=O)c1ccc(C(=O)NCC(=O)NC(Cc2ccc3ccccc3c2)C(=O)O)cc1 (configuration not stated)
Reply text: class 1

Inquiry: One more compound: `NS(=O)(=O)c1ccc(C(=O)NCC(=O)NCC(=O)N[C@@H](Cc2ccccc2)C(=O)O)cc1`
Reply text: class 1

Inquiry: One more compound: N=C(N)NCCCC(NC(=O)CNC(=O)c1ccc(S(N)(=O)=O)cc1)C(=O)O (configuration not stated)
Reply text: class 1

Inquiry: One more compound: NS(=O)(=O)c1ccc(C(=O)NCC(=O)NCC(=O)NC(Cc2ccc3ccccc3c2)C(=O)O)cc1 (configuration not stated)
Reply text: class 1
